# System: NCI-H2122 cells
# Procedure Details: NCI-H2122 CTG proliferation assay (120 h) (NSCLC, G12C)
# Type: cell-based
# Condition Info: Homo sapiens
# Experimental: NCI-H2122 CTG Proliferation Assay (120 h) (NSCLC, G12C) The CTG assay is designed to measure quantitatively the proliferation of NCI-H2122 cells (ATCC CRL-5985), using the CellTiter Glow Assay Kit (Promega G7571). […] Plates are incubated for 120 h, and cell viability is measured using CellTiter-Glo luminescent cell viability reagent (Promega product code G7570). […] IC50 values are determined from viability measurements by non-linear regression using a four parameter model.
Recorded Metric: IC50 (nM)

These recorded examples may help you get a feel for the data.
compound=C[C@H](Oc1cc(-n2ccc(-c3ccccn3)n2)nc(-c2noc3c2CCC[C@@]32CCCc3sc(N)c(C#N)c32)n1)[C@@H]1CCCN1C recorded_metric=IC50 number=251
compound=C[C@H](Oc1nc(-c2noc3c2CCC[C@@]32CCCc3sc(N)c(C#N)c32)cc(N2C[C@H](C)N[C@@H](C)C2)n1)[C@@H]1CCCN1C recorded_metric=IC50 number=900
compound=C[C@H](Oc1cc(N2C[C@H](C)N[C@@H](C)C2)nc(-c2onc3c2CCC[C@@]32CCCc3sc(N)c(C#N)c32)n1)[C@@H]1CCCN1C recorded_metric=IC50 number=3380
compound=C[C@H](Oc1cc(N2CCN(C)C3(CCC3)C2)nc(-c2onc3c2CCC[C@@]32CCCc3sc(N)c(C#N)c32)n1)[C@@H]1CCCN1C recorded_metric=IC50 number=1270
compound=C[C@H](Oc1cc(-n2cncc3ccnc2-3)nc(-c2noc3c2CCC[C@@]32CCCc3sc(N)c(C#N)c32)n1)[C@@H]1CCCN1C recorded_metric=IC50 number=847
compound=C[C@H](Oc1cc(N2C[C@H](C)N(C)[C@@H](C)C2)nc(-c2noc3c2CCC[C@@]32CCCc3sc(N)c(C#N)c32)n1)[C@@H]1CCCN1C recorded_metric=IC50 number=1460
compound=C[C@H](Oc1cc(-n2cncn2)nc(-c2noc3c2CCC[C@@]32CCCc3sc(N)c(C#N)c32)n1)[C@@H]1CCCN1C recorded_metric=IC50 number=891
compound=C[C@H](Oc1cc(-n2nccn2)nc(-c2onc3c2CCC[C@@]32CCCc3sc(N)c(C#N)c32)n1)[C@@H]1CCCN1C recorded_metric=IC50 number=3130

[A] C[C@H](Oc1cc(N2CCNC[C@@]23CCOC3)nc(-c2noc3c2CCC[C@@]32CCCc3sc(N)c(C#N)c32)n1)[C@@H]1CCCN1C
[B] C[C@H](Oc1nc(-c2noc3c2CCC[C@@]32CCCc3sc(N)c(C#N)c32)nc(N2CCNC3(CC3)C2)c1F)[C@@H]1C[C@@H](F)CN1C
[C] C[C@H](Oc1cc(C2COCCO2)nc(-c2noc3c2CCC[C@@]32CCCc3sc(N)c(C#N)c32)n1)[C@@H]1CCCN1C (stereo partly shown)
[D] C[C@H](Oc1cc(-c2ccn(C[C@@H]3CCCO3)n2)nc(-c2noc3c2CCC[C@@]32CCCc3sc(N)c(C#N)c32)n1)[C@@H]1CCCN1C
[E] C[C@H](Oc1cc(N2CCNCC2)nc(-c2noc3c2CCC[C@@]32CCCc3sc(N)c(C#N)c32)n1)[C@@H]1CCCN1C
Endpoint returns the given compounds ordered by ascending IC50. The reply should contain the labels ordered as requested.
D, B, C, A, E
(D: 102 nM, B: 929 nM, C: 1420 nM, A: 2560 nM, E: 10600 nM)

====

# Procedure Details: Metabolic (microsomal) stability assay, human liver microsomes (HLM)
# Format: in vitro ADME
# Condition Info: predicted clearance as percent of liver blood flow, 1 μM
Recorded Metric: HLM QH (%)

structure_string=C[C@H](Oc1cc(-n2ccnc2Cl)nc(-c2noc3c2CCC[C@@]32CCCc3sc(N)c(C#N)c32)n1)[C@@H]1CCCN1C unit_label=% number=44
structure_string=C[C@H](Oc1cc(-n2ccc(Br)n2)nc(-c2noc3c2CCC[C@@]32CCCc3sc(N)c(C#N)c32)n1)[C@@H]1CCCN1C unit_label=% number=47
structure_string=COCc1cn(-c2cc(O[C@@H](C)[C@@H]3CCCN3C)nc(-c3noc4c3CCC[C@@]43CCCc4sc(N)c(C#N)c43)n2)nn1 unit_label=% number=39
structure_string=C[C@H](Oc1cc(-n2cc3c(n2)CCNC3)nc(-c2noc3c2CCC[C@@]32CCCc3sc(N)c(C#N)c32)n1)[C@@H]1CCCN1C unit_label=% number=46
structure_string=[2H]C([2H])([2H])N1C[C@H](F)C[C@H]1[C@H](C)Oc1cc(N2CCNC3(CC3)C2)nc(-c2noc3c2CCC[C@@]32CCCc3sc(N)c(C#N)c32)n1 unit_label=% number=48

[P] CO[C@@H]1C[C@@H]([C@H](C)Oc2cc(-c3ccn(C)n3)nc(-c3onc4c3CCC[C@@]43CCCc4sc(N)c(C#N)c43)n2)N(C)C1
[Q] C[C@H](Oc1cc(C2CCOCC2)nc(-c2noc3c2CCC[C@@]32CCCc3sc(N)c(C#N)c32)n1)[C@@H]1CCCN1C
Could you determine which record has the numerically smaller HLM QH? Candidates: P and Q # answer = label of selected item
Q
(Q: 31%, P: 45%)

====

# Procedure Details: Solubility measurement (DMSO solution method), McIlvaine buffer pH 4.5 or 6.8
# Assay type: physicochemical
# Condition Info: aqueous buffer, kinetic from dmso stock; McIlvaine buffer pH 4.5; DMSO stock diluted to 250 μM; 24 h shaking at ambient temperature; read-out: solubility pH 4.5
Recorded Metric: solubility at 24 h

compound="C[C@H](Oc1cc(N2CCN(C)C3(CCOC3)C2)nc(-c2noc3c2CCC[C@@]32CCCc3sc(N)c(C#N)c32)n1)[C@@H]1C[C@@H](F)CN1C (stereo partly drawn) [II-151]" result="> 161 µg/mL"
compound="C[C@H](Oc1cc(N2CCN(C)C2=O)nc(-c2noc3c2CCC[C@@]32CCCc3sc(N)c(C#N)c32)n1)[C@@H]1CCCN1C [II-75]" result="> 122 µg/mL"
compound="COCCNC(=O)c1ccn(-c2cc(O[C@@H](C)[C@@H]3[C@@H](OC)CCN3C)nc(-c3noc4c3CCC[C@@]43CCCc4sc(N)c(C#N)c43)n2)n1 [II-200]" result="> 163 µg/mL"

I would be grateful if you could share the reported solubility at 24 h for C[C@@H]1CN(c2cc(O[C@@H](C)[C@@H]3CCCN3C)nc(-c3noc4c3CCC[C@@]43CCCc4sc(N)c(C#N)c43)n2)C[C@H](C)N1 [II-36] .
> 146 µg/mL

I would be grateful if you could share the reported solubility at 24 h for C[C@H](Oc1cc(N2CCN(C)C3(COC3)C2)nc(-c2noc3c2CCC[C@@]32CCCc3sc(N)c(C#N)c32)n1)[C@@H]1C[C@@H](F)CN1C [II-148] .
> 146 µg/mL

I would be grateful if you could share the reported solubility at 24 h for C[C@H](Oc1nc(-c2onc3c2CCC[C@@]32CCCc3sc(N)c(C#N)c32)cc(N2CCNC3(CC3)C2)n1)[C@@H]1CCCN1C [I-2] .
> 142 µg/mL

====

# System: KRAS G12V-dependent Ba/F3 cells
# Procedure Details: Ba/F3 proliferation assay, KRAS G12V;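 note: proliferation IC50 in KRAS G12V-dependent Ba/F3 cells read by AlamarBlue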
# Format: cell-based
# Condition Info: Mus musculus, BaF3, 72 h, AlamarBlue
# Experimental: Plasmids containing KRASG12 mutants (i.e. […], G12C, G12V) are obtained from GeneScript. To generate KRASG12-dependent Ba/F3 models, Ba/F3 cells are transduced with retroviruses containing vectors that harbor KRASG12 isoforms. […] Compounds are added using an Access Labcyte Workstation with a Labcyte Echo 550 or 555 accoustic dispenser. […] AlamarBlue™ (ThermoFisher), a viability stain, is added and fluorescence measured in the PerkinElmer Envision HTS Multilabel Reader. […]
Recorded Metric: IC50 (nM)

These recorded examples may help you get a feel for the data.
compound="C[C@H](Oc1cc(N2CCN(C)C3(CCOC3)C2)nc(-c2noc3c2CCC[C@@]32CCCc3sc(N)c(C#N)c32)n1)[C@@H]1C[C@@H](F)CN1C (stereo partly shown)" experimental_system="KRAS G12V-dependent Ba/F3 cells" recorded_metric=IC50 number=655
compound=C[C@H](Oc1cc(-n2cc3c(n2)CCN(C)C3)nc(-c2noc3c2CCC[C@@]32CCCc3sc(N)c(C#N)c32)n1)[C@@H]1CCCN1C experimental_system="KRAS G12V-dependent Ba/F3 cells" recorded_metric=IC50 number=170
compound=Cc1ccc(-c2cc(O[C@@H](C)[C@@H]3CCCN3C)nc(-c3onc4c3CCC[C@@]43CCCc4sc(N)c(C#N)c43)n2)cn1 experimental_system="KRAS G12V-dependent Ba/F3 cells" recorded_metric=IC50 number=41
compound=C[C@H](Oc1cc(-c2ccn(C3CC3)n2)nc(-c2noc3c2CCC[C@@]32CCCc3sc(N)c(C#N)c32)n1)[C@@H]1CCCN1C experimental_system="KRAS G12V-dependent Ba/F3 cells" recorded_metric=IC50 number=14
compound=C[C@H](Oc1cc(N2CCNC3(COC3)C2)nc(-c2noc3c2CCC[C@@]32CCCc3sc(N)c(C#N)c32)n1)[C@@H]1CCCN1C experimental_system="KRAS G12V-dependent Ba/F3 cells" recorded_metric=IC50 number=65
compound=C[C@H](Oc1cc(-n2cc(-c3cncs3)nn2)nc(-c2noc3c2CCC[C@@]32CCCc3sc(N)c(C#N)c32)n1)[C@@H]1CCCN1C experimental_system="KRAS G12V-dependent Ba/F3 cells" recorded_metric=IC50 number=16

[a] C[C@H](Oc1cc(-n2ccnc2)nc(-c2noc3c2CCC[C@@]32CCCc3sc(N)c(C#N)c32)n1)[C@@H]1C[C@@H](F)CN1C
[b] C[C@H](Oc1cc(-n2ccc(-c3cnccn3)n2)nc(-c2noc3c2CCC[C@@]32CCCc3sc(N)c(C#N)c32)n1)[C@@H]1CCCN1C
[c] CC(C)[C@@H]1CN(c2cc(O[C@@H](C)[C@@H]3CCCN3C)nc(-c3noc4c3CCC[C@@]43CCCc4sc(N)c(C#N)c43)n2)CCN1
[d] C[C@H](Oc1cc(-c2cncnc2)nc(-c2noc3c2CCC[C@@]32CCCc3sc(N)c(C#N)c32)n1)[C@@H]1CCCN1C
[e] C[C@H](Oc1cc(-c2cn(C)nn2)nc(-c2onc3c2CCC[C@@]32CCCc3sc(N)c(C#N)c32)n1)[C@@H]1CCCN1C
Endpoint returns the given compounds ordered by ascending IC50. The reply should contain the labels ordered as requested.
b, e, a, d, c

[A] C[C@@H]1CN(c2cc(O[C@@H](C)[C@@H]3CCCN3C)nc(-c3noc4c3CCC[C@@]43CCCc4sc(N)c(C#N)c43)n2)C[C@H](C)N1
[B] C[C@H](Oc1cc(-c2cccc(CO)c2)nc(-c2noc3c2CCC[C@@]32CCCc3sc(N)c(C#N)c32)n1)[C@@H]1CCCN1C
Could you determine which record has the numerically smaller IC50? Candidates: A and B # answer = label of selected item
B
(B: 26 nM, A: 390 nM)
